target-under-test: X-box-binding protein 1 (Homo sapiens) (UniProt P17861)
method-description: XBP1 reporter suppression in cells – counter-screen, dose response (AID 504313);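 further: CHO cells carrying an XBP1 reporter stimulated with tunicamycin; potency is for inhibition of the tunicamycin-induced reporter signal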
condition-notes: XBP1 reporter cell assay, percent of control
Activity calls are given as the source filed them. How the calls were made is not given here.
assay-endpoint: IC50

{"compound": "C=CCn1c(C)cc(C2=NNC(=NCC)SC2)c1C", "assay-endpoint": "IC50", "val": "< 0.16 µM (inactive)"}
{"compound": "COc1ccc(NC(=O)/C(Cl)=C(/Cl)S(=O)Cc2ccccc2Cl)cn1 (configuration not stated)", "assay-endpoint": "IC50", "val": "0.92 µM"}
{"compound": "CCc1ccc(OCC(=O)NC(NC(=S)Nc2ccc(C)cc2C)C(Cl)(Cl)Cl)cc1 (configuration not stated)", "assay-endpoint": "IC50", "val": "inactive"}
{"compound": "O=S(=O)(Nc1cc(Sc2cccc3cccnc23)c(O)c2ccccc12)c1ccc(F)cc1", "assay-endpoint": "IC50", "val": "4.63 µM"}
{"compound": "Cn1c2ccccc2c(=O)c2c(=O)n(C3CCCCCC3)c(C3CCCCC3)nc21", "assay-endpoint": "IC50", "val": "> 10 µM (inactive)"}
{"compound": "COc1cc(N(C(=O)Cc2cccs2)C(C(=O)NC2CCCCC2)c2ccc(C)cc2)ccc1-n1cnnn1 (configuration not stated)", "assay-endpoint": "IC50", "val": "> 10 µM (inactive)"}
{"compound": "Cc1ccc(-n2c(Cl)c(Cl)nc(Cl)c2=O)cc1", "assay-endpoint": "IC50", "val": "2.32 µM"}
{"compound": "O=C(c1ccc(Cl)cc1)c1c[nH]c(C(=O)NNc2cccc(Cl)n2)c1", "assay-endpoint": "IC50", "val": "> 10 µM (inactive)"}
{"compound": "CCCCC(CC)Cn1c2nc3ccccc3nc2c2c(=N)oc(C)nc21 (configuration not stated)", "assay-endpoint": "IC50", "val": "> 10 µM (inactive)"}
{"compound": "CN1/C(=C/C(=O)c2nc(S(C)(=O)=O)ncc2Cl)C(C)(C)c2ccccc21", "assay-endpoint": "IC50", "val": "inactive"}
{"compound": "Cc1cccc(OCc2n(CC(=O)OC3CC(C)CCC3C(C)C)c3ccccc3[n+]2C)c1 (configuration not stated)", "assay-endpoint": "IC50", "val": "> 10 µM (inactive)"}
{"compound": "COc1cccc(N2CCN(c3ncnc4c3[nH]c3ccccc34)CC2C)c1 (configuration not stated)", "assay-endpoint": "IC50", "val": "inactive"}
{"compound": "Cn1c(=O)c(C(=O)Nc2ncccc2O)c(O)c2ccccc21", "assay-endpoint": "IC50", "val": "> 10 µM (inactive)"}
{"compound": "CC1=C/C(=N\\OS(=O)(=O)c2ccccc2)C(C)=CC1=O", "assay-endpoint": "IC50", "val": "2.69 µM"}
{"compound": "O=C(NNC(=O)c1cccc2ccccc12)c1ccc(-c2ccccc2)cc1", "assay-endpoint": "IC50", "val": "> 10 µM (inactive)"}
{"compound": "CCN1/C(=C/C=C/C=C/c2sc3ccccc3[n+]2CC)Sc2ccccc21", "assay-endpoint": "IC50", "val": "2.4 µM"}
{"compound": "CCN(CCO)c1ncnc2c1sc1nc(C(C)C)c3c(c12)CC(C)(C)OC3", "assay-endpoint": "IC50", "val": "> 10 µM (inactive)"}
{"compound": "CC(C)c1ccc(O)c(NC(=S)NC(=O)CCc2ccccc2)c1", "assay-endpoint": "IC50", "val": "inactive"}
{"compound": "CC(C)CCn1c(=O)c(C(=O)N/N=C/c2cccc(F)c2)c(O)c2ccccc21", "assay-endpoint": "IC50", "val": "3.49 µM"}
{"compound": "CC1(c2ccccc2)CC(C)(C)N2C(=O)/C(=C3\\SC(=S)NC3=O)c3cccc1c32 (configuration not stated)", "assay-endpoint": "IC50", "val": "inactive"}
{"compound": "COC(=O)CN1C(=S)N(Cc2ccccc2)C(=O)C1CC(=O)Nc1ccc(Br)cc1 (configuration not stated)", "assay-endpoint": "IC50", "val": "5.87 µM"}
{"compound": "O=C(O)c1cccc(COc2ccc(CO)cc2Cl)c1", "assay-endpoint": "IC50", "val": "< 0.16 µM"}
{"compound": "CN(C)c1ccc(-c2nc3ccccn3c2/N=C/c2ccc(Br)cc2)cc1", "assay-endpoint": "IC50", "val": "> 10 µM (inactive)"}
{"compound": "OCCCNc1cc(-c2ccnc(Nc3cccc(Cl)c3)n2)ccn1", "assay-endpoint": "IC50", "val": "< 0.16 µM"}
{"compound": "Cc1cc(C)c2nc(C(F)(F)F)c(C#N)c(N)c2c1", "assay-endpoint": "IC50", "val": "> 10 µM (inactive)"}
{"compound": "COc1cc(/C=N/O)cc(Br)c1OCc1cccc(Cl)c1", "assay-endpoint": "IC50", "val": "inactive"}
{"compound": "CC(C)CC(NC(=O)c1ccc(Cl)cc1)C(=O)OCC(=O)c1ccc2c(c1)NC(=O)CO2 (configuration not stated)", "assay-endpoint": "IC50", "val": "inactive"}
{"compound": "Oc1ccc(Oc2ccc3c(C(F)(F)F)cc(C(F)(F)F)nc3n2)cc1", "assay-endpoint": "IC50", "val": "> 10 µM (inactive)"}
{"compound": "C=C(C)COc1ccc(-c2[nH]ncc2Oc2ccccc2OCC)c(O)c1", "assay-endpoint": "IC50", "val": "inactive"}
{"compound": "O=C(N/N=C/c1cccs1)c1cccc(NC(=O)c2ccc(Cl)cc2)c1", "assay-endpoint": "IC50", "val": "inactive"}
{"compound": "O=[N+]([O-])c1cc(S(=O)(=O)C(F)(F)F)ccc1Sc1nc2ccccc2[nH]1", "assay-endpoint": "IC50", "val": "inactive"}
{"compound": "Cc1ccc(Nc2nc(N)c([N+](=O)[O-])c(N3CCC(C)CC3)n2)cc1C", "assay-endpoint": "IC50", "val": "inactive"}
{"compound": "CN1CCN(CC(=O)N2CCn3c4c(c5cc(C6CCCCC6)ccc53)CCCC42)CC1 (configuration not stated)", "assay-endpoint": "IC50", "val": "> 10 µM (inactive)"}
{"compound": "COc1ccc(/C=N\\NC(=O)COc2ccc(C(C)(C)C)cc2)cc1Cn1nc(C)cc1C", "assay-endpoint": "IC50", "val": "inactive"}
{"compound": "C=C(C(=O)c1ccccc1)C(C)C(=C)C(=O)c1ccccc1", "assay-endpoint": "IC50", "val": "inactive"}
{"compound": "C=CS(=O)(=O)c1ccc(Oc2ccc(S(=O)(=O)C=C)cc2)cc1", "assay-endpoint": "IC50", "val": "1 µM"}
{"compound": "CCc1ccc(OCC(=O)NC(NC(=S)Nc2ccccc2)C(Cl)(Cl)Cl)cc1 (configuration not stated)", "assay-endpoint": "IC50", "val": "> 10 µM (inactive)"}
{"compound": "CCOc1ccc(-c2nc(CSCC(=O)NCc3ccco3)c(C)o2)cc1", "assay-endpoint": "IC50", "val": "< 0.16 µM"}
{"compound": "C/C(=N\\NC(=O)COc1ccc(C(C)(C)C)cc1)c1ccc(N2CCOCC2)cc1", "assay-endpoint": "IC50", "val": "inactive"}
{"compound": "COc1cc(OC)nc(-n2ncc(Br)c(Br)c2=O)n1", "assay-endpoint": "IC50", "val": "1.99 µM"}
{"compound": "O=[N+]([O-])c1ccc(-c2nc(C(Cl)Cl)c3ccccc3n2)cc1", "assay-endpoint": "IC50", "val": "1.34 µM"}
{"compound": "CC(C)C[C@H](NC(=O)c1[nH]cnc1C(=O)N[C@@H](C)C(=O)OC(C)(C)C)C(=O)OC(C)(C)C", "assay-endpoint": "IC50", "val": "2.71 µM"}

###

target-under-test: X-box-binding protein 1 (Homo sapiens)
method-description: XBP1 reporter suppression in cells – counter-screen, dose response (AID 504313);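 further: CHO cells carrying an XBP1 reporter stimulated with tunicamycin; potency is for inhibition of the tunicamycin-induced reporter signal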
condition-notes: XBP1 reporter cell assay, percent of control
Activity calls are given as the source filed them. How the calls were made is not given here.
assay-endpoint: IC50

{"compound": "C=C1C(=O)O[C@@H]2C[C@@H](C)[C@@H]3C4OC4C(=O)[C@@]3(C)[C@@H](O)[C@H]12 (stereo not given in full)", "val": "4.96 µM"}
{"compound": "Cc1nc(SCC(=O)Nc2cc(C)on2)c2c3c(sc2n1)CCCC3", "val": "> 10 µM (inactive)"}
{"compound": "Cc1nc2c(=O)n(C)c(=O)n(C)c2nc1Cl", "val": "inactive"}
{"compound": "CN(C(=O)CCl)C1CCCc2ccccc21 (stereo not given)", "val": "inactive"}
{"compound": "COc1ccc(NC(=S)NC(NC(=O)/C=C/c2ccccc2)C(Cl)(Cl)Cl)cc1 (stereo not given)", "val": "> 10 µM (inactive)"}
{"compound": "COC(=O)[C@@H]1[C@@H](C(=O)OC)C2(c3ccccc3-c3ccccc32)N(c2ccc(Cl)cc2)N1C#N", "val": "> 10 µM (inactive)"}
{"compound": "CNc1ccc2oc(C[C@H]3O[C@@]4(CC[C@H]3C)O[C@H]([C@H](C)C(=O)c3ccc[nH]3)[C@H](C)C[C@H]4C)nc2c1C(=O)O", "val": "1.41 µM"}
{"compound": "O=C(CSc1ncnc2[nH]ncc12)Nc1nc(-c2ccc(F)c(F)c2)cs1", "val": "> 10 µM (inactive)"}
{"compound": "Cc1ccc(/C=N/NC(=O)CCCOc2ccc(Cl)cc2Cl)cc1", "val": "> 10 µM (inactive)"}
{"compound": "Cc1cc(/C=N/n2cnnc2)c(C)n1-c1ccc(OCc2ccc(Cl)cc2)cc1", "val": "0.56 µM"}
